TGI values by entry
tested on: OVCAR-8 ovarian; experiment: NCI tumour cell line growth inhibition, 48 h

IN: Need TGI, item CC(=O)NCCC1CN(C(=O)/C=C\C#C[Si](C)(C)C)c2ccccc21 (stereo unspecified)
OUT: > 100 µM

IN: TGI for Nc1nnc2cc(Cl)ccc2n1 ?
OUT: > 100 µM

IN: Fill blank: measured TGI of the molecule COC(=O)c1cc(NC(=O)c2cc(NC(=O)c3cc([N+](=O)[O-])cn3C)cn2C)cn1C is ____.
OUT: > 100 µM

IN: Which TGI is reported for this molecule? CCCCCC(=O)c1ccc2[nH]c3c(C)cc([N+](=O)[O-])c(C)c3c2c1
OUT: > 100 µM

IN: So what does the record say about TGI for CCOC(=O)C1(Cc2ccccc2)CCCCCN1 (stereo unspecified) ?
OUT: > 100 µM

Next:
IN: Bench note: what TGI did O=C(O)/C(=C/c1c(O)ccc2ccccc12)c1csc(-c2nc(/C(=C\c3c(O)ccc4ccccc34)C(=O)O)cs2)n1 show?
OUT: 49.4 µM

IN: Recorded TGI for OCCSCc1ccccc1 , please?
OUT: > 100 µM

IN: Sample CCOC(=O)C(CO)c1nc2c([nH]c1=O)c(=O)n(C)c(=O)n2C (stereo unspecified) — what was its TGI?
OUT: > 100 µM

IN: Would you mind telling me what TGI value was observed for CC[C@@]1(O)C(=O)NCc2c1cc1n(c2=O)Cc2cc3c(N)cccc3nc2-1 ?
OUT: > 78.7 µM

IN: // returns reported TGI for input Cc1nc2ccc(Nc3nc(NCCN4CCOCC4)nc(Nc4ccc(F)cc4)n3)cc2n1Cc1ccccc1
OUT: > 100 µM

IN: TGI lookup needed for C(=N\OCc1ccccc1)/c1ncccc1C1OCCO1 , thanks.
OUT: > 100 µM

###

tested on: DU-145 prostate
Choose the fitting class; nothing outside active, inactive is accepted.

Known results for compounds:
IN: What was the test verdict on O=[N+]([O-])c1ccc(N/N=C/c2c(O)ccc3ccccc23)nc1 ?
OUT: inactive

IN: Assay outcome for O=C(c1ccc2ncc(-c3nc(NC4CC4)ncc3F)n2c1)N1CCOCC1 : what was it?
OUT: inactive

IN: Record request — test call for CCOC(=O)C(=Cc1ccccc1[N+](=O)[O-])C(=O)OCC
OUT: inactive

IN: Could you check what this test reported for Cn1c(=O)c(Oc2ccccc2F)cc2cnc(NC3CCOCC3)nc21 ?
OUT: inactive

IN: Given Cc1cc(C)c(C[N+](C)(C)C)c(C)c1C , state the outcome it received in this test.
OUT: active

IN: Could you kindly confirm the outcome this assay logged for N=C(N=C(N)N)N1CCN(c2ccncc2)CC1 ?
OUT: inactive

Continuing:
IN: // param item: CCOC(=O)c1[nH]c(-c2ccc(Cl)cc2)cc1-c1cccnc1 ; yields the recorded call
OUT: inactive

###

Reported TGI values follow for various molecules
tested on: HS 578T breast; assay: NCI tumour cell line growth inhibition, 48 h

IN: Can you share its TGI? I mean this molecule: COc1cc(/C=C2\CC3C4CC=C5C[C@@H](OC(C)=O)CC[C@]5(C)C4CC[C@]3(C)C2=O)ccc1OCCCn1ccnc1 (stereo not given in full)
OUT: 21.3 µM

IN: // returns reported TGI for input O=c1[nH]nc(-c2ccccc2)n1/N=C/c1c[nH]c2ccccc12
OUT: > 100 µM

Next up:
IN: Entry CN(C)c1nc(NC23CC4CC(CC(C4)C2)C3)nc(N(C)C)n1 : reported TGI = ?
OUT: 56 µM
